Test system: K-562 leukemia
procedureSummary: NCI tumour cell line growth inhibition, 48 h
Listed next: entries and their corresponding TGI.

Query: # lookup: TGI of CCOC(=O)c1cc2c(n1Cc1ccccc1OC)-c1oncc1CCC2
Result: > 100 µM

Query: Same thing, different compound: COc1ccc2[nH]c3c(O)c(-c4c(C)cc5c([nH]c6ccc(OC)cc65)c4O)c(C)cc3c2c1
Result: 8.13 µM

Query: Same thing, different compound: C[C@@H](Oc1cc(-c2cnn(C3CCNCC3)c2)cnc1N)c1c(Cl)cc(F)cc1Cl
Result: 3.88 µM

Query: Same thing, different compound: CCOc1nc2sc3c(c2c(=O)n1CCSSCCn1c(OCC)nc2sc4c(c2c1=O)CCCC4)CCCC3
Result: > 100 µM

Query: Same thing, different compound: COc1cc([C@@H]2c3cc4c(cc3[C@@H](NC(=O)NO)[C@H]3COC(=O)[C@H]23)OCO4)cc(OC)c1O
Result: > 100 µM

Query: Same thing, different compound: CCC(C(=O)[C@@H](C)[C@@H](O)[C@H](C)[C@@H]1O[C@@H]([C@@H](CC)C(=O)ONC(=O)c2ccccc2)CC[C@@H]1C)[C@H]1O[C@]2(C=CC(=O)[C@]3(CC[C@@](C)([C@H]4CC[C@](O)(CC)[C@H](C)O4)O3)O2)[C@H](C)C[C@@H]1C (stereo partly specified)
Result: 1.79 µM

Query: Same thing, different compound: CC(=O)O[C@H]1CC[C@]2(C)C3C(=O)C[C@]4(C)[C@@H](C(C)CCC(=O)O)CC[C@@]4(C)[C@@H]3CC[C@H]2C1(C)C (stereo partly specified)
Result: > 50 µM

Query: Same thing, different compound: CC(C)=CCOc1ccc(-c2coc3cc4c(c(O)c3c2=O)C=CC(C)(C)O4)cc1
Result: > 100 µM

Query: Same thing, different compound: CCCCC[C@H]1C/C=C2/C(=O)C(Cl)=C[C@@H]2C/C=C\CCCC(=O)O1
Result: 3.6 µM

Query: Same thing, different compound: O=C(O)c1[nH]c2c([N+](=O)[O-])cc([N+](=O)[O-])cc2c1C(=O)O
Result: > 100 µM

Query: Same thing, different compound: CC[P+]1(c2ccccc2)CCCCC1
Result: > 100 µM

Query: Same thing, different compound: COC(=O)/C(=N\N)C(C(=O)C(=O)Nc1nc(=S)[nH][nH]1)c1nc2ccc([N+](=O)[O-])cc2[nH]c1=O (stereo unspecified)
Result: > 100 µM

Query: Same thing, different compound: O=C(O)CCC(NC(=O)c1ccc(Oc2nc3ccccc3nc2-c2ccccc2)cc1)C(=O)O (stereo unspecified)
Result: > 100 µM

Query: Same thing, different compound: NC(=O)c1ncn2c(=O)n(CCCl)nnc12
Result: 642 µM

Query: Same thing, different compound: CC(=O)[CH-]C(=O)c1ccccc1.CC(=O)[CH-]C(=O)c1ccccc1.CC(=O)[CH-]C(=O)c1ccccc1.[Br-].[Zr+4]
Result: > 100 µM

----------
Test system: DMS 273 small cell lung
procedureSummary: NCI tumour cell line growth inhibition, 48 h
resultType: TGI

Example entries and their recorded answers appear below.
>>> assayresult("CC(=O)OCC1OC(n2c(O)c(N=NC(N)=S)c3ccc([N+](=O)[O-])cc32)C(OC(C)=O)C1OC(C)=O (stereo not given)")
"57.5 µM"
>>> assayresult("Cc1ccc(NC(=O)CCC(=O)C2Cc3ccccc3C2=O)cc1C (stereo not given)")
"> 100 µM"
>>> assayresult("CSc1cc(C(C)(C)C)ccc1C(O)c1ccc(C(C)(C)C)cc1SC")
"26.9 µM"
>>> assayresult("CCCCCCCCCCCCCCCCCCOCC(O)CO (stereo not given)")
"> 7.73 µM"
>>> assayresult("N#CC1=C(c2ccccc2)OC2(N)OC(c3ccccc3)=C(C#N)C12C#N (stereo not given)")
"> 100 µM"
>>> assayresult("CNC(=O)NCCN1N=C(C)/C(=C\\c2ccccc2)CC1=O")
"> 100 µM"

Query: # lookup: TGI of O=C(O)CCSC(=O)Nc1ccccc1
Result: > 100 µM
